Target: human NK-3 receptor (Homo sapiens (Human), UniProt P29371)
Sequence (P29371 whole entry): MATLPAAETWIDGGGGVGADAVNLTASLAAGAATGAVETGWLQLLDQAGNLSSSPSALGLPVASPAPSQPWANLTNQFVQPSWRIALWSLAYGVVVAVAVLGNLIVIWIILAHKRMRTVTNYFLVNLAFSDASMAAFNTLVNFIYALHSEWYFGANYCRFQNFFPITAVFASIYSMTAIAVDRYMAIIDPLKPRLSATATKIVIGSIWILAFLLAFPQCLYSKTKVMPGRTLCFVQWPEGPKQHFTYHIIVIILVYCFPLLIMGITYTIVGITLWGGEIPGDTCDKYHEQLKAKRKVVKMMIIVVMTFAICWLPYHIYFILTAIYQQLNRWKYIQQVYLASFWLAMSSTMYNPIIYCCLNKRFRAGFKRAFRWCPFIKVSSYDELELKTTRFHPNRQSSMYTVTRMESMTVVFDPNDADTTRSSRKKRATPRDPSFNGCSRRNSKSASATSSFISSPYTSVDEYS
Experiment: Aequorin functional assay with human NK-3 receptor (antagonist testing)
Settings: CHO cells expressing human NK-3 receptor; agonist NKA at EC80 (3 nM); read-out: Functional assay: Aequorin assay with human NK-3 receptor hNK-3 - AEQ (antagonist IC50)
Protocol: Aequorin Assay with Human NK-3 Receptor Changes in intracellular calcium levels are a recognized indicator of G protein-coupled receptor activity. The efficacy of compounds of the invention to inhibit NKA-mediated NK-3 receptor activation was assessed by an in vitro Aequorin functional assay. […] In the presence of the cofactor coelenterazine, apoaequorin emits a measurable luminescence that is proportional to the amount of intracellular (cytoplasmic) free calcium. […]
// pIC50 lookup, one value per entry
// returns pIC50 (minus log10 of molar concentration), number only

Below, each entry is followed by its recorded pIC50 result.
Query: For the compound shown here, C[C@@H]1c2nnc(-c3csc(C(F)(F)F)n3)n2CCN1C(=O)c1ccc(F)c(F)c1F [Compound 14] , give the reported pIC50.
Reply: 7.23

Query: Moving on to Cc1ccc(-c2nnc3n2CCN(C(=O)c2ccc(F)c(F)c2F)[C@@H]3C)o1 [Compound 6]
Reply: 7.00

Query: Moving on to Cc1ccc(-c2nnc3n2CCN(C(=O)c2cc(F)c(F)c(F)c2F)[C@@H]3C)o1 [Compound 4]
Reply: 7.14

Query: Moving on to Cc1ccc(-c2nnc3n2CCN(C(=O)c2ccc(F)c(F)c2)[C@@H]3C)o1 [Compound 5]
Reply: 7.28

Query: Moving on to Cc1ccc(-c2nnc3n2CCN(C(=O)c2ccc(Cl)c(F)c2)[C@@H]3C)o1 [Compound 9]
Reply: 7.28

Now for a further compound.
Query: For the compound shown here, C[C@@H]1c2nnc(-c3csc(C(F)(F)F)n3)n2CCN1C(=O)c1ccc(Cl)c(F)c1 [Compound 17] , give the reported pIC50.
Reply: 7.43
